Measured values drawn from patent US20210275653A1 for this set.

The reader will find reported peptide exchange yield values listed item by item below.
assay target: HLA-A*24 MHC class I molecule (peptide-receptive after UV-ligand exchange) (human)
assay details: UV-ligand exchange, anti-b2m ELISA; grade of peptide exchange yield (>=10% = +; >=20% = ++; >=50 = +++; >=75% = ++++)

- LYFEKGEYF [peptide … (SEQ ID No. 55)]: > 75%
- SYSPAHARL [peptide … (SEQ ID No. 30)]: 50 to 75%
- AYTSPPSFF [peptide … (SEQ ID No. 31)]: 50 to 75%

Bench note: what peptide exchange yield did RYFKTPRKF [peptide … (SEQ ID No. 45)] show?
20 to 50%

# iterate: IYTRVTYYL [peptide … (SEQ ID No. 35)]
20 to 50%

# iterate: QYGKDFLTL [peptide … (SEQ ID No. 33)]
50 to 75%

# iterate: RYADDTFTPAF [peptide … (SEQ ID No. 26)]
50 to 75%

# iterate: SYNDALLTF [peptide … (SEQ ID No. 24)]
50 to 75%
